# measured-on: purified recombinant human PARP (Homo sapiens)
# Construct: purchased Trevigen (Gaithersburg, Md.)
# Sequence (P09874 whole entry): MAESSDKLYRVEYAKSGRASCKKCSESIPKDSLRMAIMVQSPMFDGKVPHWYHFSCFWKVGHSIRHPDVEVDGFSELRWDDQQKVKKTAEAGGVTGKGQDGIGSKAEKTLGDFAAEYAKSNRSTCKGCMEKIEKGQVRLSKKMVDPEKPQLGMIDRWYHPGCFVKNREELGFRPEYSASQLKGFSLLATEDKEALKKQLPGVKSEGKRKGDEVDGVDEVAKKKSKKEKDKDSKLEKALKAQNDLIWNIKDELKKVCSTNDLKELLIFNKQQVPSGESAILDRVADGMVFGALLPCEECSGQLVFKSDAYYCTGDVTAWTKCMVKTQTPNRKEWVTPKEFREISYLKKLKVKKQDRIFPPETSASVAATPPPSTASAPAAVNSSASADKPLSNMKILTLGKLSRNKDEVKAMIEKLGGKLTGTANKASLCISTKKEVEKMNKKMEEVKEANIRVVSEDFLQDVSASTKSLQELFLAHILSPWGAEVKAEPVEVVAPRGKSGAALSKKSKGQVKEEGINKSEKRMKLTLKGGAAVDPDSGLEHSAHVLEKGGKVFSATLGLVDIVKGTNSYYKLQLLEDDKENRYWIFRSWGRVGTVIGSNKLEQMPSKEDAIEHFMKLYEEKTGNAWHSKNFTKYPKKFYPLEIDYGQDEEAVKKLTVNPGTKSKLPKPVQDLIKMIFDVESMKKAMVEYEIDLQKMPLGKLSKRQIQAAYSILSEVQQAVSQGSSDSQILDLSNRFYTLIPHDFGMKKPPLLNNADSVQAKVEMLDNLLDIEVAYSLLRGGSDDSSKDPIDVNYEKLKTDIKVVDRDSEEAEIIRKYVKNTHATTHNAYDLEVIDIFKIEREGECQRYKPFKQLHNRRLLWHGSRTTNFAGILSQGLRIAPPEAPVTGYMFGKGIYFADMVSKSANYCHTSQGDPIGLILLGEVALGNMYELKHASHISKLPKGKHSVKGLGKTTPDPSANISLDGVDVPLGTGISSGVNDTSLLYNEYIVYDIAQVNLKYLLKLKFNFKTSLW
# experiment-summary: PARP enzyme assay using purified recombinant human PARP, [3H]NAD incorporation
# Format: biochemical
# experimental-setup: 25° C., 15 minutes, 3.0 micromolar [3H]NAD, read-out: Approximate IC50's
pIC50: −log10 of the molar value.
assay-endpoint: pIC50

O=C(O)c1c[nH]c(=O)c2ccccc12 ... 5.00

P: O=c1[nH]ccc2c([N+](=O)[O-])cccc12
Q: COC(=O)c1c[nH]c(=O)c2ccccc12
R: O=c1[nH]cc([N+](=O)[O-])c2ccccc12
Ordering: ascending pIC50. Record the ranking as a list of labels in the requested order.
P, R, Q
(P: 5.00, R: 5.30, Q: 6.10)
